- run.description: solvent given as SMILES
- measurement.conditions: in CO
value.kind: fluorescence lifetime (ns)
All answers are understood in ns, so give the number only.

Ask: Record request: fluorescence lifetime value, item COc1ccc2cc([C@H](C)C(=O)O)ccc2c1
Result: 8.48

Ask: Now the compound CC1=[N+]2C(=C(c3ccccc3)c3ccc(C)n3[B-]2(F)F)C=C1
Result: 1.46

Ask: Quick one: c1ccc(-c2c3c(c(-c4ccccc4)c4cc5ccccc5cc24)Cc2c(c(-c4ccccc4)c4cc5ccccc5cc4c2-c2ccccc2)C3)cc1
Result: 3.68

Ask: Item: Cc1nc2c(c[n+]1C)CN1C(=O)N([C@H]3O[C@@H](CO)[C@H](O)[C@@H]3O)C=CC1=N2
Result: 0.55

###

What fluorescence lifetime was measured for each of the following?
- run.description: solvent given as SMILES
- measurement.conditions: in CN(C)C=O
// note: answer is a bare numeric in ns

Ask: fluorescence lifetime for COc1cc(/C=C2/SC(=O)NC2=O)ccc1O ?
Result: 4.11

Ask: Ok, now CCOc1cc2c(cc1/C=C/C1=CC(=C(C#N)C#N)CC(C)(C)C1)c1ccccc1n2CC
Result: 4.01

Ask: What do you get for NCCCCCCCCCCCCN1C(=O)c2ccc3c4ccc5c6c(ccc(c7ccc(c2c37)C1=O)c64)C(=O)N(CCCCCCCCCCCCN)C5=O ?
Result: 4.1

###

Assign fluorescence lifetime to each entry below.
- run.description: solvent given as SMILES
- measurement.conditions: in CC(C)=O
Write it as a number; the unit ns goes unstated.

Ask: Looking for the measured fluorescence lifetime of O=C1CCCC2=C1CC1=C(CCCC1=O)N2NC(=O)c1ccc(O)cc1 , can you help?
Result: 5.6

Ask: How about CCNc1ccc2c(C(F)(F)F)cc(=O)oc2c1 ?
Result: 5.08

Ask: Similarly, CC1=CC(c2ccc3cc(N(C)C)ccc3c2)=[O+][B-](F)(F)O1 ?
Result: 2.72

###

- run.description: solvent given as SMILES
- measurement.conditions: in C1CCOC1
value.kind: fluorescence lifetime
Please state the number and follow it with the unit.

Ask: # lookup: fluorescence lifetime of Cn1nc(-c2ccccc2)c2nc3cc(Cl)ccc3nc21
Result: 20.1 ns

Ask: Could you do the same for CCCCn1c2ccc(C#Cc3cccs3)cc2c2c1c1c3ccc(C#Cc4cccs4)cc3n(CCCC)c1c1c3ccc(C#Cc4cccs4)cc3n(CCCC)c21 , please?
Result: 3.8 ns

Ask: Also Cc1ccc(-c2cnc3nn4ccccc4c3c2)cc1 ?
Result: 4.6 ns

Ask: Entry to check: COC(=O)C(Cc1ccc2oc(-c3ccc(N(C)c4ccccc4)cc3)nc2c1)NC(=O)OC(C)(C)C (centres undefined)
Result: 5.29 ns

###

- run.description: solvent given as SMILES
- measurement.conditions: in C1COCCO1
Please provide measured fluorescence lifetime for the entries that follow.
# output: bare number, implied unit ns

Ask: # get_value(readout='fluorescence lifetime', item= COc1cc(/C=C2/SC(=O)NC2=O)ccc1O )
Result: 1.3

Ask: # repeat for COc1ccc(/C=C/C=C/C=C/c2ccc([N+](=O)[O-])cc2)cc1
Result: 1.9

Ask: Another molecule: CN(C)c1ccc2c(c1)C(=O)NC2=O
Result: 14.9

Ask: // next record NS(=O)(=O)c1ccc(N2N=C(c3ccc(O)cc3)CC2c2ccc(Br)cc2)cc1 (centres undefined)
Result: 2.17

###

- run.description: solvent given as SMILES
- measurement.conditions: in OCC(F)(F)F
Exercise: for every item that follows, state its recorded fluorescence lifetime.
Reply numerically in ns, unit not repeated.

Ask: Given N#Cc1cccc2cc[nH]c12 , state its recorded fluorescence lifetime.
Result: 1.2

Ask: Follow-up entry: Cc1ccc(C2=C3C=CC=[N+]3[B-](F)(F)n3cccc32)cc1
Result: 0.323

Ask: Repeat with CCC1=C(C)C2=C(C)c3cc(I)c(I)n3[B-](F)(F)[N+]2=C1C
Result: 0.779

Ask: What do you have for N#Cc1ccc2cc[nH]c2c1 ?
Result: 0.8

Ask: Would you mind doing Cc1cc(=O)oc2c1cc(Br)c1occ(C)c12 as well?
Result: 0.13

Ask: Please give the result for Cc1cc(=O)oc2c3c4c(cc12)CCCN4CCC3 too.
Result: 6.36

Ask: CN(C)c1ccc(/C=C/C=C2\CC/C(=C\C=C\c3ccc(N(C)C)cc3)C2=O)cc1 , same question.
Result: 0.14

Ask: Next up: N#Cc1ccc2[nH]ccc2c1
Result: 0.1

Ask: Can you check CCC1=C(C)C2=C(C)c3c(C)c(CC)c(C)n3[B-](F)(F)[N+]2=C1C next?
Result: 6.94

Ask: Would you kindly repeat that for F[B-]1(F)n2cccc2C=C2C=CC=[N+]21 ?
Result: 8.23

Ask: Similarly, COc1ccc2cc3c(C)cc(=O)oc3cc2c1 ?
Result: 13

Ask: Here is the next molecule: C=CCOc1nnc(OCCC(F)(F)C(F)(F)C(F)(F)C(F)(F)C(F)(F)C(F)(F)F)nn1
Result: 8.7

###

- run.description: solvent given as SMILES
- measurement.conditions: in CS(C)=O
value.kind: log10(fluorescence lifetime) (log10 of the value in ns)
All values: log10 fluorescence lifetime [ns].

Ask: Give its log10(fluorescence lifetime) value. Item: N#Cc1ccc2c(c1)CCc1nc(-c3ccc([N+](=O)[O-])cc3)c3c(c1-2)CCc1cc(C#N)ccc1-3
Result: 0.09

Ask: Consider next the compound COc1cc2[nH]c3c(c2cc1OCC(=O)O)CCCC3=O in the same way.
Result: 0.36

Ask: Same lookup for CCN1\C(=C/C=C/C=C/C2=[N+](CC)c3ccc4ccccc4c3C2(C)C)C(C)(C)c2c1ccc1ccccc21 , please.
Result: 0.12

Ask: Then what about the compound COC(=O)C(Cc1ccc2oc(-c3ccc(N(C)c4ccccc4)cc3)nc2c1)NC(=O)OC(C)(C)C (centres undefined) ?
Result: 0.68

Ask: Now this one: CCOc1cc2c(cc1/C=C/C1=CC(=C(C#N)C#N)CC(C)(C)C1)c1ccccc1n2CC
Result: 0.69

Ask: Then what about the compound Nc1ccc2c(c1)C(=O)N(C13C[C@H]4C[C@@H](C1)C[C@@H](C3)C4)C2=O ?
Result: 1.35

Ask: For NS(=O)(=O)c1ccc(N2N=C(c3ccc(O)cc3)CC2c2ccccc2)cc1 (centres undefined) then?
Result: 0.39

Ask: Next: CN(C)c1ccc2nc(/C=C/c3cc4c5c(c3)CCCN5CCC4)c(=O)oc2c1
Result: -0.49

Ask: Can you check Cc1ccc(-c2nc(-c3ccc(-c4nc(-c5ccc(C)cc5)c(-c5ccc(C)cc5)[nH]4)cc3)[nH]c2-c2ccc(C)cc2)cc1 next?
Result: 0.03

###

- run.description: solvent given as SMILES
- measurement.conditions: in Cc1ccccc1
Assign class by fluorescence lifetime: not lower than 4 ns means TRUE; lower than 4 ns means FALSE.

Ask: Please indicate if the recorded fluorescence lifetime for O=S(=O)(c1ccc(N2c3ccccc3Oc3ccccc32)cc1)c1ccc(N2c3ccccc3Oc3ccccc32)cc1 meets or exceeds 4 ns.
Result: TRUE

Ask: Try this molecule next: CCCCOC(=O)c1cc(Cl)c2c3c(Cl)cc4c5c(cc(Cl)c(c6c(Oc7ccc(C(=O)OC)cc7)cc(C(=O)OCCCC)c1c26)c53)C(=O)N(c1c(C(C)C)cccc1C(C)C)C4=O
Result: TRUE

Ask: Field entry: Cc1cc(C)c(B(c2ccc(-n3c4ccccc4c4ccccc43)cc2)c2c(C)cc(C)cc2C)c(C)c1
Result: FALSE

Ask: Param item: Fc1c(-c2nnc(-c3ccccc3)o2)c(-n2c3ccccc3c3ccccc32)c(F)c(-n2c3ccccc3c3ccccc32)c1-n1c2ccccc2c2ccccc21
Result: TRUE

Ask: Now consider COc1cc(N(c2ccccc2)c2ccccc2)ccc1C=C(C#N)C#N and answer again.
Result: FALSE

Ask: Entry to check: FC(F)(F)c1ccc(-c2nnc(-c3cc(-c4nnc(-c5ccc(C(F)(F)F)cc5)o4)c(-n4c5ccccc5c5ccccc54)cc3-n3c4ccccc4c4ccccc43)o2)cc1
Result: TRUE

Ask: Proceed to CC1(C)c2cccc(-c3nc(-c4ccccc4)nc(-c4ccccc4)n3)c2Oc2c(N3c4ccccc4Sc4ccccc43)cccc21
Result: FALSE

###

- run.description: solvent given as SMILES
- measurement.conditions: in Cc1ccccc1
value.kind: fluorescence lifetime (ns)
The figure you give is taken to be in ns; do not add the unit.

Ask: Item COc1cc2c(cc1/C=C/C(=C(C#N)C#N)c1ccccc1)c1ccccc1n2C has what recorded fluorescence lifetime?
Result: 7.98

Ask: Same read-out for COc1cc2[nH]c3c(c2cc1OCC(=O)O)CCCC3=O ?
Result: 0.189

Ask: Likewise for Cc1ccc(C2=C3C=CC(Cl)=[N+]3[B-](F)(F)n3c(Cl)ccc32)cc1 ?
Result: 3.26

Ask: Next entry: Cc1ccc(C2=C3C=CC(C#Cc4ccccc4)=[N+]3[B-](F)(F)n3c(C#Cc4ccccc4)ccc32)cc1
Result: 6.18

Ask: Consider next the compound CC(=O)O[B-]1(OC(C)=O)OC(/C=C/c2ccc(C)cc2)=CC(/C=C/c2ccc(C)cc2)=[O+]1 in the same way.
Result: 1.34

Ask: Again, but for CC1=CC(C)=[N+]2C1=C(c1ccccc1)c1c(C)cc(C)n1[B-]2(F)F
Result: 3.4

Ask: Now the compound CCN(CC)c1ccc2cc(/C=C/C(=C(C#N)C#N)c3ccc(N(c4ccccc4)c4ccccc4)cc3)c(=O)oc2c1
Result: 0.84
